Value source: PubChem BioAssay (NCATS)

# ASSAYED_TARGET: Rap guanine nucleotide exchange factor 3 (Homo sapiens) (UniProt O95398)
# Sequence (O95398 whole entry, looked up): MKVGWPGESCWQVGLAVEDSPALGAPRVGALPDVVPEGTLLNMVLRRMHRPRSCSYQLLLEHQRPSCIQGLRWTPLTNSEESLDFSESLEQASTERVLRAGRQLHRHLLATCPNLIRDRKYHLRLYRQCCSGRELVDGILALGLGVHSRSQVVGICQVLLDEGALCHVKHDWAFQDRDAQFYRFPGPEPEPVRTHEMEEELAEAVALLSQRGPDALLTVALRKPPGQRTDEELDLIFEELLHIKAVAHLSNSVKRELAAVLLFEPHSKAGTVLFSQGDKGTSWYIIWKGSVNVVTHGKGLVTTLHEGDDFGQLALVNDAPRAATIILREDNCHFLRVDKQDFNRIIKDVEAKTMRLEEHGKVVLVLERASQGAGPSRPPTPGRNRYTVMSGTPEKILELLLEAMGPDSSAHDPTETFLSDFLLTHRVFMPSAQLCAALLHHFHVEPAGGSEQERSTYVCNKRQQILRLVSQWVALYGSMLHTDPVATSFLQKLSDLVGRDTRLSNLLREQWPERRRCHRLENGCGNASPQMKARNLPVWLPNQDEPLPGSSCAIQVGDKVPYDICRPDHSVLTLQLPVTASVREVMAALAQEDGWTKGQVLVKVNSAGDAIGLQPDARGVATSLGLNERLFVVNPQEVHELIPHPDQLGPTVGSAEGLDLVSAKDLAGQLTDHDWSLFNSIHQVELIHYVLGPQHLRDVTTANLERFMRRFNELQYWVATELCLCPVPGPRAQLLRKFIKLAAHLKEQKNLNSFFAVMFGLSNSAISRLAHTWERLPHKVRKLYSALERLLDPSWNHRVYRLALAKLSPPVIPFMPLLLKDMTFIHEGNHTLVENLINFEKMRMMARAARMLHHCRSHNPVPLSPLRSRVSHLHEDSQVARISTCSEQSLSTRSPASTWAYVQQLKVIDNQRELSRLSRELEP
# EXPERIMENT_DESCRIPTION: Counterscreen qHTS for antagonist of cAMP-regulated guanine nucleotide exchange factor 3 (EPAC1) (AID 1645888);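 further: fluorescence loss as bound BODIPY-GDP is released from Rap1B; % of control where 0% means no effect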
# CONDITION_SET: Rap1B-BODIPY-GDP nucleotide exchange, fluorescence; series mostly up to 154 µM
Records with an inconclusive call do not appear. Active and inactive are the calls of the source. The call rests on the fitted dose curve; in most records, active means well fitted inhibition curve with a large enough effect; inconclusive means small, poorly fitted or top-dose-only effect; inactive means no such curve, though single readings can be large or run the other way.
READOUT_TYPE: activity change, negative = inhibition

> print(dat)
                                   compound                            readout.type                  observed.value
1  CCOC(=O)C1CCCCN1Cc1cn(C)nc1-c1ccccc1F (stereo not given)  activity change, negative = inhibition                        inactive
2  Cc1cccc(OCCCSc2nc(-c3ccc(C(C)(C)C)cc3)nc3cc(=O)[nH]n23)c1C  activity change, negative = inhibition                        inactive
3     COc1cc(-c2c(CCO)sc3ccccc23)cc(OC)c1OC  activity change, negative = inhibition  -51.2% [at 30.8 µM] (inactive)
4  Cc1ccc(S(=O)(=O)N2CCCCC2)cc1C(=O)NCCC1=CCCCC1  activity change, negative = inhibition                        inactive

With those in mind, consider the next compound.
Q: // returns reported activity change, negative = inhibition for input CCN(CC(=O)Nc1ccccc1C(F)(F)F)C(=O)CCOc1ccccc1C
Ans: -14% [at 30.8 µM] (inactive)
